READOUT NAME: IC50

Item CC(=O)O[C@H]1CN(c2ncc3ncnc(Nc4ccc(Oc5ccc6c(c5)ncn6C)c(C)c4)c3n2)C[C@H]1F [Example 90] ; assay system UniProt P00533; IC50 reported as ≥ 10 µM

Item Clc1cc(Nc2ncnc3cnc(N4C[C@@H]5[C@H](C4)[C@H]4CC[C@@H]5O4)nc23)ccc1Oc1ccn2ncnc2c1 [Example 351] ; assay system UniProt P00533; IC50 reported as ≥ 10 µM

Item Cc1cc(Nc2ncnc3cnc(NC4CC4)nc23)ccc1Oc1ccc2c(c1)ncn2C [Example 270] ; assay system UniProt P00533; IC50 reported as ≥ 10 µM

* * *

Answer each item with its documented IC50.
Target: ErbB2 with Exon 20 YVMA insertion (HER2-YVMA) (Homo sapiens (Human), UniProt P04626, INS775YVMA)
Sequence (P04626 other isoform, or with tags, fused parts or gaps ins YVMA behind 775): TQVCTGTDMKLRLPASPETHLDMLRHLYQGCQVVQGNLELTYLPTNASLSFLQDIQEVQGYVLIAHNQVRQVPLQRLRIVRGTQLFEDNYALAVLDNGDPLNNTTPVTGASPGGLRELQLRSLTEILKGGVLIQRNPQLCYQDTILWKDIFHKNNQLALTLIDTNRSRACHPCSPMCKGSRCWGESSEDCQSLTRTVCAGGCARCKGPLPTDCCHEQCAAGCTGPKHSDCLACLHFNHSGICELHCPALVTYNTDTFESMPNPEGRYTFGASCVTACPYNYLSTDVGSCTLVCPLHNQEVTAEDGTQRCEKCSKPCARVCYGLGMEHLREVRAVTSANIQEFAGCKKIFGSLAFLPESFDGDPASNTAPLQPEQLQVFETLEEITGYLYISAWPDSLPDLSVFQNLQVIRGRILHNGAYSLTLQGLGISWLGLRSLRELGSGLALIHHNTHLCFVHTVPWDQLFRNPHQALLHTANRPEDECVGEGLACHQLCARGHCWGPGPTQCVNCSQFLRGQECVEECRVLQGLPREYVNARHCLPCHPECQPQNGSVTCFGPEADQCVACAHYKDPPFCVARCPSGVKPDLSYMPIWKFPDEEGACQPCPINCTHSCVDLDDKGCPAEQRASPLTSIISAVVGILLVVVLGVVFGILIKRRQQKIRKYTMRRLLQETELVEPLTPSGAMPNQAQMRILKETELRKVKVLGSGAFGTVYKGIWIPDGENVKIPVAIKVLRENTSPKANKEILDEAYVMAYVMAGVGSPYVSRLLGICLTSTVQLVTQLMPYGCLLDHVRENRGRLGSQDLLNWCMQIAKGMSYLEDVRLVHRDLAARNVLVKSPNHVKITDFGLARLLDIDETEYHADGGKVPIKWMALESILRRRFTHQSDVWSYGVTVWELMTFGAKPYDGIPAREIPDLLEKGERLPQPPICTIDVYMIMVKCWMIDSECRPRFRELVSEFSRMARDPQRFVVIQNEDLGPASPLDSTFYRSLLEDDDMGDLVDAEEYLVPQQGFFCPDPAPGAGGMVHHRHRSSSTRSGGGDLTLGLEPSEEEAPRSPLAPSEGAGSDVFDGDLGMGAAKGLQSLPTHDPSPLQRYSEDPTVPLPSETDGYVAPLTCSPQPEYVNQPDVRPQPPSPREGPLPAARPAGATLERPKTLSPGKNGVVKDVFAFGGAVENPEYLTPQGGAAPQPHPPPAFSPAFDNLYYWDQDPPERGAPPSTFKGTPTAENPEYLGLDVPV
Assay: Cellular phosphorylation assay, constitutive ErbB2 phosphorylation (Y1196) in engineered NIH 3T3 cells, Assay 4
Report the figure in nM without appending any unit label.

The molecule listed as Cc1cc(Nc2ncnc3cnc(N4CCO[C@H]5C[C@H]54)nc23)ccc1Oc1ccc2c(c1)ncn2C [Example 161] shows IC50 equal to 16

The molecule listed as Cc1cc(Nc2ncnc3cnc(N4CCC45COC5)nc23)ccc1Oc1cc(F)c2c(c1)ncn2C shows IC50 equal to 15.7

The molecule listed as Cc1cc(Nc2ncnc3cnc(N4CCC(C)(O)CC4)nc23)c(F)cc1Oc1ccc2c(c1)ncn2C shows IC50 equal to 37.8

The molecule listed as Cc1cc(Nc2ncnc3cnc(N4CCCC4=O)nc23)ccc1Oc1ccc2c(c1)ncn2C shows IC50 equal to 30.5

The molecule listed as COC[C@H](O)CN(C)c1ncc2ncnc(Nc3ccc(Oc4ccn5ncnc5c4)c(Cl)c3)c2n1 shows IC50 equal to 166

The molecule listed as FC(F)(F)[C@@H]1CN(c2ncc3ncnc(Nc4ccc(Oc5ccn6ncnc6c5)c(Cl)c4)c3n2)CCN1 shows IC50 equal to 43.3

* * *

Answer each item with its documented IC50.
Biological target: ErbB2 insYVMA (HER2-YVMA, SEQ ID NO: 2) (Homo sapiens, UniProt P04626, INS775YVMA/P1170A)
Sequence (P04626 with tags, fused parts or gaps INS775YVMA/P1170A limits assumed): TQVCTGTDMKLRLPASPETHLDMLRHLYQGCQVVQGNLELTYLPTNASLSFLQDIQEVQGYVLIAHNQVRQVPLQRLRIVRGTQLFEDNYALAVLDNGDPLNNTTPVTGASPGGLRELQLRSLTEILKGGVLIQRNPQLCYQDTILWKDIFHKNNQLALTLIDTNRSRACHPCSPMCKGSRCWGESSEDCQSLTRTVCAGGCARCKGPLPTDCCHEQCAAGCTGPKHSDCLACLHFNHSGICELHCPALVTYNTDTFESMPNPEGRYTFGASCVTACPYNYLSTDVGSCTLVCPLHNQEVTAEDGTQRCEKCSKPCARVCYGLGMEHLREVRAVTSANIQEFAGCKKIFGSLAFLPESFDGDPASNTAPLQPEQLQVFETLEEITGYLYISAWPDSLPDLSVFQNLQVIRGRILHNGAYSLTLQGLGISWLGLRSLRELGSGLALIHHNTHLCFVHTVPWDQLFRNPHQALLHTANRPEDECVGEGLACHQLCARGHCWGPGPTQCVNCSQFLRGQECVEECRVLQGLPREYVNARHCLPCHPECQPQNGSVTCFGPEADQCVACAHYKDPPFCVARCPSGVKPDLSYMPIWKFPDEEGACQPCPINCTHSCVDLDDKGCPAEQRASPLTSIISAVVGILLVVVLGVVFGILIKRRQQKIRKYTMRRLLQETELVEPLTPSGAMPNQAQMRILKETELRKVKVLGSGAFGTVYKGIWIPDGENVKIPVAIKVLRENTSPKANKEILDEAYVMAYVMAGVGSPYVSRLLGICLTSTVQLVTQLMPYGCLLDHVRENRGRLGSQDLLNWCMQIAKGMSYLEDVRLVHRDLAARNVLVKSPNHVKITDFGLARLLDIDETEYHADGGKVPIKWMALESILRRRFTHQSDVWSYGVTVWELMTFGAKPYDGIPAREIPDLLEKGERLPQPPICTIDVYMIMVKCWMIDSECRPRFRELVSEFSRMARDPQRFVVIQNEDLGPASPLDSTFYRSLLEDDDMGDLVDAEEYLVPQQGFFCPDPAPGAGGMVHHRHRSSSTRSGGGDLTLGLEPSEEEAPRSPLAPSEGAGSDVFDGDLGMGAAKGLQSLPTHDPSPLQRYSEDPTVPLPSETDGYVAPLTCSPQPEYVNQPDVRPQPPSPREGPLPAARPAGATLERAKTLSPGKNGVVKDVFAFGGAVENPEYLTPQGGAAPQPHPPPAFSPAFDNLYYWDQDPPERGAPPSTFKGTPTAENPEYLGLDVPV
Test: biochemical
Settings: ErbB2 insYVMA enzyme assay; read-out: Assay 1 IC50
Report the figure in µM without appending any unit label.

Item CN(CC1(O)CCC1)c1ncc2ncnc(Nc3ccc(Oc4ccn5ncnc5c4)c(Cl)c3)c2n1 [Example 329] ; assay system ErbB2 insYVMA (HER2-YVMA, SEQ ID NO: 2) (Homo sapiens, UniProt P04626, INS775YVMA/P1170A); IC50 reported as 0.0198

Item Cc1cc(Nc2ncnc3cnc(N4C[C@H](O)C(F)(F)C4)nc23)ccc1Oc1ccc2c(c1)ncn2C [Example 170] ; assay system ErbB2 insYVMA (HER2-YVMA, SEQ ID NO: 2) (Homo sapiens, UniProt P04626, INS775YVMA/P1170A); IC50 reported as 0.0201

Item O[C@H]1C[C@@H]2C[C@H]1CN2c1ncc2ncnc(Nc3ccc(Oc4ccn5ncnc5c4)c(Cl)c3)c2n1 [Example 334] ; assay system ErbB2 insYVMA (HER2-YVMA, SEQ ID NO: 2) (Homo sapiens, UniProt P04626, INS775YVMA/P1170A); IC50 reported as 0.0204

* * *

Molecular target: ErbB2 insYVMA (HER2-YVMA, SEQ ID NO: 2) (Homo sapiens, UniProt P04626, INS775YVMA/P1170A)
Experiment: biochemical
Conditions: ErbB2 insYVMA enzyme assay; read-out: Assay 1 IC50
READOUT NAME: pIC50
pIC50 is defined as minus the log10 of a concentration measured in mol/L.

The compound listed as Cc1cc(Nc2ncnc3cnc(N4CC5(COC5)C4)nc23)ccc1Oc1ccc2c(c1)ncn2C shows pIC50 equal to 7.07

The compound listed as Cc1cc(Nc2ncnc3cnc(N4CC5(C4)CC(C)(O)C5)nc23)ccc1Oc1ccc2c(c1)ncn2C shows pIC50 equal to 8.19

The compound listed as Cc1cc(Nc2ncnc3cnc(N4CCCCC4)nc23)ccc1Oc1ccc2c(c1)ncn2C shows pIC50 equal to 6.95

The compound listed as Cc1cc(Nc2ncnc3cnc(N4CCC4)nc23)ccc1Oc1ccc2scnc2c1 [Example 44, 2,2,2-trifluoroacetate] shows pIC50 equal to 6.99

The compound listed as Cc1cc(Nc2ncnc3cnc(N(C)C4CCOCC4)nc23)ccc1Oc1ccc2c(c1)ncn2C shows pIC50 equal to 8.12

The compound listed as Cc1cc(Nc2ncnc3cnc(N(C)[C@@H]4CCCOC4)nc23)ccc1Oc1ccn2ncnc2c1 shows pIC50 equal to 7.77

The compound listed as CO[C@@H]1CN(c2ncc3ncnc(Nc4ccc(Oc5ccc6c(c5)ncn6C)c(C)c4)c3n2)C[C@@H]1O shows pIC50 equal to 7.75

The compound listed as Cc1cc(Nc2ncnc3cnc(N4[C@H]5CC[C@@H]4[C@@H](O)C5)nc23)ccc1Oc1ccc2c(c1)ncn2C (racemic) shows pIC50 equal to 7.25

The compound listed as Cc1cc(Nc2ncnc3cnc(N4CCN[C@H](C(F)(F)F)C4)nc23)ccc1Oc1ccc2c(c1)ncn2C shows pIC50 equal to 7.51

The compound listed as CNc1ncc2ncnc(Nc3ccc(Oc4ccc5c(c4)ncn5C)c(C)c3)c2n1 shows pIC50 equal to 8.05
